Listed next: entries and their corresponding pKd.
assay-target: FABP3 fused with a His-tag at the N-terminus
Sequence (chain, as listed by the source): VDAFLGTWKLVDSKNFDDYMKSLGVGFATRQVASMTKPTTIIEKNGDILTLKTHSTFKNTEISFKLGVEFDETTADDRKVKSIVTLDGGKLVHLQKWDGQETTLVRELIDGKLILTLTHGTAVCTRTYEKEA
protocol-notes: QCM
The meaning of pKd here: minus log10 of the concentration in molar units.

Check out these entries, answers already filled in.
binder	pKd
EEGYQDFEPEA [SynP130-140 Y136F]	8.11
EEGYQDWEPEA [SynP130-140 Y136W]	8.20
EEGYQDYEPEA [SynP130-140 peptide]	8.21
EEGWQDWEPEA [SynP130-140 Y133W/Y136W]	8.21
EEGFQDWEPEA [SynP130-140 Y133F/Y136W]	8.21

Then this binder:
According to the records, this binder EEGFQDFEPEA [SynP130-140 Y133F/Y136F] displays pKd of 8.68

Source of measurements: patent US20230242601A1
